Source of measurements: patent US10702498B2

# STUDY SYSTEM: UniProt P41145
# Sequence (P41145 whole entry): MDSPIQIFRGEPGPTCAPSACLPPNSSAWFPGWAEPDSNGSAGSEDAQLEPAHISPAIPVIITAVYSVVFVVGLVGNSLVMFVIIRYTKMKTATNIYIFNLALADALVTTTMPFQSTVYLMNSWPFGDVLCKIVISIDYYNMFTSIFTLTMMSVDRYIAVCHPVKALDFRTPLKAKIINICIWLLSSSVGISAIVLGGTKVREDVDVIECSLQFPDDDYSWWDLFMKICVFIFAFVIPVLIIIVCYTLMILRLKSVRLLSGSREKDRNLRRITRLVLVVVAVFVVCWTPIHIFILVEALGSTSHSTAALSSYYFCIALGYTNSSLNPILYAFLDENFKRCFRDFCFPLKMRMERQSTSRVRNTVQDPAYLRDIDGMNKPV
# ASSAY NOTES: Receptor binding, [3H]diprenorphine
Could you please report measured pKi for the items listed next?
Interpret pKi as the negative base-10 log of the concentration measured in mol/L.

Reported pKi ( C[C@@H](Cc1ccsc1)NC(=O)NC[C@H](Cc1ccc(O)cc1)N(C)Cc1ccccc1 ) = 6.68

The recorded pKi for COc1cccc(CCNC(=O)NC[C@H](Cc2ccc(O)cc2)N(C)C)c1 is 5.89

Form: molecule = CN(C)[C@H](CNC(=O)NCCc1cn(CCOCCOCCN=[N+]=[N-])nn1)Cc1ccc(O)cc1 ; pKi = 5.92

// pKi lookup, molecule = CN(CCO)[C@H](CNC(=O)NCCc1ccccc1)Cc1ccc(O)cc1 , result: 5.89

Recorded result, COc1ccc(CCNC(=O)NC[C@H](Cc2ccc(O)cc2)N(C)C)cc1 , pKi: 5.82

###

Kindly state Ki for each of the entries shown.
# STUDY SYSTEM: MOR (Homo sapiens (Human), UniProt P35372)
# Sequence (P35372 whole entry): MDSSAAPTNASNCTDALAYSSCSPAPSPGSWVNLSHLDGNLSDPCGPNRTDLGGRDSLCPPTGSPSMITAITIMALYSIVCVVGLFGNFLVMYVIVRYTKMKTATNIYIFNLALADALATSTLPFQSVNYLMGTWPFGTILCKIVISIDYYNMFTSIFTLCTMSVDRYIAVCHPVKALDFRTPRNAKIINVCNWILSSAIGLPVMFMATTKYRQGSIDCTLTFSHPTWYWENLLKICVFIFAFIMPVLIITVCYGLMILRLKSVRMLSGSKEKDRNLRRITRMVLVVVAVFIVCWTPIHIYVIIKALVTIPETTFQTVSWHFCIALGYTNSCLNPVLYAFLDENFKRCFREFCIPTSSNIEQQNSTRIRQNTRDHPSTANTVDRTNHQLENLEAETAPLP
# ASSAY NOTES: Receptor binding, [3H]diprenorphine
# CONDITION: binding affinity Ki [nM] hMOR
Write the value in nM as a bare number.

Hey, MOR (Homo sapiens (Human), UniProt P35372) data for CN(C)[C@H](CNC(=O)NCCc1cccc(F)c1)Cc1ccc(O)cc1 [DDLM-10] : Ki came out at 36

# lookup: CN(C)[C@H](CNC(=O)NCCCN1C(=O)C=CC1=O)Cc1ccc(O)cc1 [DD 138] on MOR (Homo sapiens (Human), UniProt P35372), Ki = 580

CN(C)[C@H](CNC(=O)NCCc1ccc(F)cc1)Cc1ccc(O)cc1 [DDLM-15] tested on MOR (Homo sapiens (Human), UniProt P35372) gave Ki: 27

Measured on MOR (Homo sapiens (Human), UniProt P35372), COc1ccccc1CCNC(=O)NC[C@H](Cc1ccc(O)cc1)N(C)C [DD198] has a documented Ki of 22

Ki of CC(Cc1csc2ccccc12)NC(=O)NC[C@H](Cc1ccc(O)cc1)N(C)C (mixture of isomers) [DD 63L-RS] , assay on MOR (Homo sapiens (Human), UniProt P35372), is 14

Value (Ki, MOR (Homo sapiens (Human), UniProt P35372)) for record CN(C)[C@H](CNC(=O)NCCc1ccccc1F)Cc1ccc(O)cc1 [DDLM-08] = 43

###

Would you mind telling me the reported Arrestin pEC50 of each entry?
# STUDY SYSTEM: μOR β-arrestin2 recruitment (Homo sapiens (Human), UniProt P35372)
# ASSAY NOTES: β-Arrestin2 recruitment without GRK2 co-expression (BRET)
# Format: cell-based
Answer with a bare number; do not write a unit.

Response field Arrestin pEC50 (μOR β-arrestin2 recruitment (Homo sapiens (Human), UniProt P35372)) for item CN(C)[C@H](CNC(=S)NCCc1ccsc1)Cc1ccc(O)cc1 [DD 81] : 7.604

Response field Arrestin pEC50 (μOR β-arrestin2 recruitment (Homo sapiens (Human), UniProt P35372)) for item CN(C[C@H](Cc1ccc(O)cc1)N(C)C)C(=O)NCCc1ccccc1 [DD 108] : 5.327

Form: item C[C@@H](Cc1ccsc1)NC(=O)NC[C@H](Cc1cccc(O)c1)N(C)C [DD 47LS] ; test system μOR β-arrestin2 recruitment (Homo sapiens (Human), UniProt P35372); Arrestin pEC50: 6.447

Short answer on μOR β-arrestin2 recruitment (Homo sapiens (Human), UniProt P35372) for CN(CCc1ccccc1)C(=O)NC[C@H](Cc1ccc(O)cc1)N(C)C [DD 102] , Arrestin pEC50: 5.703

Note to self: Arrestin pEC50 of CN(C)[C@H](CNC(=O)NCCc1ccccc1)Cc1ccc(O)cc1 [DD 90] with μOR β-arrestin2 recruitment (Homo sapiens (Human), UniProt P35372) was 7.272

Form field Arrestin pEC50 for item CN(C)[C@H](CNC(=O)NC(C)(C)Cc1ccsc1)Cc1ccc(O)cc1 [DD 32L] on μOR β-arrestin2 recruitment (Homo sapiens (Human), UniProt P35372): 8.282

Fill in: μOR β-arrestin2 recruitment (Homo sapiens (Human), UniProt P35372) Arrestin pEC50 for C[C@@H](Cc1ccsc1)NC(=O)NC[C@H](Cc1ccc(O)c(CO)c1)N(C)C [DD 131] = 6.639

Short answer on μOR β-arrestin2 recruitment (Homo sapiens (Human), UniProt P35372) for C[C@@H](Cc1ccccc1)NC(=O)NC[C@H](Cc1ccc(O)cc1)N(C)C [DD 61L-B] , Arrestin pEC50: 7.075

Considering C[C@@H](Cc1csc2ccccc12)NC(=O)NC[C@H](Cc1ccc(O)cc1)N(C)C [DD 63L-LB] , its Arrestin pEC50 with μOR β-arrestin2 recruitment (Homo sapiens (Human), UniProt P35372) was recorded as 6.401

The reported Arrestin pEC50 value, μOR β-arrestin2 recruitment (Homo sapiens (Human), UniProt P35372), for C[C@H](NC(=O)NC[C@H](Cc1ccc(O)cc1)N(C)C)c1ccccc1 [DD 53LS] reads 7.168

μOR β-arrestin2 recruitment (Homo sapiens (Human), UniProt P35372) Arrestin pEC50 of CN(C)[C@H](CNC(=O)NCCc1ccsc1)Cc1ccc(O)cc1 [DD 16] is 6.387
